The reported numbers originate from patent US5883097A.

# Assay method text: Solubility in water
# Format: physicochemical
# Condition label: read-out: amount of salt dissolving in 1 mL of water
Counter-ions that a name gives are not always drawn.
Endpoint name: solubility

Q. Using the record for CCC(C(C)OC(=O)CN)n1ncn(-c2ccc(N3CCN(c4ccc(OCC5COC(Cn6cncn6)(c6ccc(F)cc6F)C5)cc4)CC3)cc2)c1=O (single isomer, unassigned; (-)) [Hydrochloride] , report its solubility.
A. 1000 to 2000 µg/mL
